Property: viability at 24 h, 20 µM; scope: individual compounds
# assay-procedure: Cytotoxicity against human HuH7 cells assessed as cell viability at 20 uM after 24 hrs by MTS assay
# Format: cell-based, Huh-7
# cond: read-out: Activity

smiles-code: Cc1ccc(-c2nnc(SCc3cc([N+](=O)[O-])cc([N+](=O)[O-])c3)o2)cc1
viability at 24 h, 20 µM [%]: 101
--
smiles-code: COc1cccc(-c2nnc(SCc3cc([N+](=O)[O-])cc([N+](=O)[O-])c3)s2)c1
viability at 24 h, 20 µM [%]: 86.3
--
smiles-code: COc1ccc(-c2nnc(SCc3cc([N+](=O)[O-])cc([N+](=O)[O-])c3)s2)cc1
viability at 24 h, 20 µM [%]: 95.4
--
smiles-code: O=[N+]([O-])c1ccc(CSc2nnc(-c3ccccc3)o2)c([N+](=O)[O-])c1
viability at 24 h, 20 µM [%]: 99.5
--
smiles-code: O=[N+]([O-])c1cc(CSc2nnc(-c3ccccc3)o2)cc([N+](=O)[O-])c1
viability at 24 h, 20 µM [%]: 99.3
--
smiles-code: COc1cccc(-c2nnc(SCc3cc([N+](=O)[O-])cc([N+](=O)[O-])c3)o2)c1
viability at 24 h, 20 µM [%]: 89.6
--
smiles-code: O=[N+]([O-])c1cc(CSc2nnc(-c3ccccc3)s2)cc([N+](=O)[O-])c1
viability at 24 h, 20 µM [%]: 84.3
--
smiles-code: CO[C@H]1/C=C/O[C@@]2(C)Oc3c(C)c(O)c4c(O)c(c(/C=N/N5CCN(C)CC5)c(O)c4c3C2=O)NC(=O)/C(C)=C\C=C\[C@H](C)[C@H](O)[C@@H](C)[C@@H](O)[C@@H](C)[C@H](OC(C)=O)[C@@H]1C
viability at 24 h, 20 µM [%]: 98.3
--
smiles-code: O=[N+]([O-])c1cc(CSc2nnc(-c3ccc(Cl)cc3Cl)o2)cc([N+](=O)[O-])c1
viability at 24 h, 20 µM [%]: 95.7
--
smiles-code: O=[N+]([O-])c1cc(CSc2nnc(-c3cccc(Cl)c3)s2)cc([N+](=O)[O-])c1
viability at 24 h, 20 µM [%]: 90.7
--
smiles-code: O=[N+]([O-])c1cc(CSc2nnc(-c3ccc(Cl)cc3)s2)cc([N+](=O)[O-])c1
viability at 24 h, 20 µM [%]: 94
--
smiles-code: O=[N+]([O-])c1cc(CSc2nnc(-c3cccc(Cl)c3)o2)cc([N+](=O)[O-])c1
viability at 24 h, 20 µM [%]: 97.9
--
smiles-code: COc1ccc(-c2nnc(SCc3cc([N+](=O)[O-])cc([N+](=O)[O-])c3)o2)cc1
viability at 24 h, 20 µM [%]: 91.6
--
smiles-code: COc1ccc(-c2nnc(SCc3ccc([N+](=O)[O-])cc3[N+](=O)[O-])o2)cc1
viability at 24 h, 20 µM [%]: 85.1

src = ChEMBL document CHEMBL3797190
